Test: chemical genetic growth profiling, strain panel (AID 1159580);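 further: tested at 20 µM; growth read once vehicle control cultures reached saturation at 30 °C; lower values mean less growth of the strain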
Conditions: S. cerevisiae deletion strains, growth OD, locus YGR252W, strain gcn5
The whole screen tested about 5,500 compounds, of which about 2,000 (36%) were called active. Not shown: some 18% with an inconclusive outcome. No stated cut-off is given here; in the data, active means normalized growth mostly below about 0.91 (no sharp cut-off); inconclusive means no clear call, values can overlap the other calls; inactive means mostly above about 0.92. The list shows a part of the results.
Possible outcomes: active, inactive

# compound, class
measured = [
    ("CC(=O)OCC(=O)[C@@]1(O)CCC2C3C[C@H](C)C4=CC(=O)C=CC4(C)C3[C@@H](O)CC21C (stereo not given in full)", "inactive"),
    ("C[N+]1(C)C[C@H](O)[C@H](C(=O)[O-])C1", "inactive"),
    ("CC1=CC(=O)C(C(C)C)=CC1=O", "active"),
    ("CC1(C)S[C@@H]2[C@H](NC(=O)C(C(=O)O)c3ccccc3)C(=O)N2[C@H]1C(=O)O (stereo not given in full)", "inactive"),
    ("O=C(CCCN1CCC2(CC1)C(=O)NCN2c1ccccc1)c1ccc(F)cc1", "inactive"),
    ("C[C@H]1[C@H](C)CC[C@]2(C(=O)O)CC[C@]3(C)C(=CCC4[C@@]5(C)C[C@@H](O)[C@H](O)[C@@](C)(CO)C5[C@H](O)C[C@]43C)[C@H]12 (stereo not given in full)", "inactive"),
    ("CC(C)Nc1nc(Cl)nc(NC(C)C)n1", "inactive"),
    ("NC[C@H]1O[C@H](OC2[C@@H](N)C[C@@H](N)[C@H](O[C@H]3O[C@H](CO)[C@@H](O)[C@H](N)[C@H]3O)[C@H]2O)[C@H](O)[C@@H](O)[C@@H]1O (stereo not given in full)", "inactive"),
    ("CN(C)C(=O)C(CCN1CCC(O)(c2ccc(Cl)cc2)CC1)(c1ccccc1)c1ccccc1", "inactive"),
    ("Cc1ccc(C(C)C)c(O)c1C(=O)O", "inactive"),
    ("CC1(C)Oc2ccc3ccc(=O)oc3c2CC1O (stereo not given)", "inactive"),
    ("CC1=CC(=O)C2C(C)(C)CCC[C@]2(C)[C@@]1(O)CCc1ccoc1 (stereo not given in full)", "inactive"),
    ("NCCCCN", "inactive"),
    ("Cc1ccccc1N1C(=O)c2cc(S(N)(=O)=O)c(Cl)cc2NC1C (stereo not given)", "inactive"),
    ("COP(N)(=O)SC (stereo not given)", "inactive"),
    ("Cc1cc(N)c2ccccc2[n+]1CCCCCCCCCC[n+]1c(C)cc(N)c2ccccc21", "active"),
    ("COC(=O)C[C@H]1C(C)(C)[C@@H](O)[C@@H]2CC3=C4CC(O)O[C@@H](c5ccoc5)[C@]4(C)CCC3[C@@]1(C)C2=O (stereo not given in full)", "inactive"),
    ("CC1(C)C(O)CC(=O)C2(C)C1CC(O)C1(C)C2CCC2(C)C(c3ccoc3)OC(=O)C3OC321 (stereo not given)", "inactive"),
    ("CC(=O)O[C@@H]1c2c(ccc3ccc(=O)oc23)OC(C)(C)[C@@H]1OC(=O)CC(C)C", "inactive"),
    ("COc1ccccc1N1CCN(CCCNc2cc(=O)n(C)c(=O)n2C)CC1", "inactive"),
]
